Biological target: T1, EsCas13d, nuclease-dead (Eubacterium siraeum, UniProt B0MS50, R295A;H300A;R849A;H854A)
T1 sequence: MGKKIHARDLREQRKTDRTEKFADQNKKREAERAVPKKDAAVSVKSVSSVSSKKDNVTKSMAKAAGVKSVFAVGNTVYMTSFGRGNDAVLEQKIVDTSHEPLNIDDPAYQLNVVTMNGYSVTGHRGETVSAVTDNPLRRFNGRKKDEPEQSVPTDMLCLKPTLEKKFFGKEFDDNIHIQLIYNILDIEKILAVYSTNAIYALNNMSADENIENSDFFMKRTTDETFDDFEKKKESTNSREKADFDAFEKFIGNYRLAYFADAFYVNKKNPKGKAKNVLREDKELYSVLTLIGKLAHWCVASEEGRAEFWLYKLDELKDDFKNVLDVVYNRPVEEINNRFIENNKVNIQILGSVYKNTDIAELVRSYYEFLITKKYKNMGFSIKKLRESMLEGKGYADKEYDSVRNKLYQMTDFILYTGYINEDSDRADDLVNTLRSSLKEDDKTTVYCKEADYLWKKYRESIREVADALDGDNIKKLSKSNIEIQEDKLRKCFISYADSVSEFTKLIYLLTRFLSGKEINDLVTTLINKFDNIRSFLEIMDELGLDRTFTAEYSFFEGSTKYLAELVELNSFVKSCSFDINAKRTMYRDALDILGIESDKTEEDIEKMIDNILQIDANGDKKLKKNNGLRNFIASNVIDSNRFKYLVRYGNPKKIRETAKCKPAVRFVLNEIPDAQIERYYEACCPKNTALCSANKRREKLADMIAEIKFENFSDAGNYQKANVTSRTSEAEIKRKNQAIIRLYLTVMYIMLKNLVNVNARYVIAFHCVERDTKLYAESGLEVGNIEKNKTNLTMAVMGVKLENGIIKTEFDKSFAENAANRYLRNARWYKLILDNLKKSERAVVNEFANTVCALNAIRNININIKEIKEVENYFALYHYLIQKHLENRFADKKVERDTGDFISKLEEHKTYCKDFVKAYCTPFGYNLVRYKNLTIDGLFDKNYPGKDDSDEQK
Assay: crRNA (strand 1, pre-loaded); Mg2+; 40 mM Tris-HCl pH 7.5, 150 mM NaCl, 6 mM MgCl2, 1 mM DTT, 0.1% Tween-20, 0.2 mg/ml BSA; 25 C; 10 min per concentration, then washed
Conditions: tags: His6-TwinStrep-SUMO cleaved; N-terminal SNAP kept (SNAP-Surface 488); label: 3' end held by stalled T7 RNA polymerase
Please go through the items and note down their pKd.
Lab note: report pKd as minus log10 of the concentration in molar units, number only.

The recorded pKd for target 1 insC 3' of 5,insA 3' of 3 (mixed) RNA 1: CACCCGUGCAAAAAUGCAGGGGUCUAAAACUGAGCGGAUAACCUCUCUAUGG RNA 2: GGGAAUGGAUCCACAUCUACGAAUUCGUACCAUAGAGAGGUUAUCCGCCUACACCGAGAUCGGAAGAGCACACGU is 7.52

Entry under test: target 3 insC 3' of 8,insA 3' of 3 (mixed) RNA 1: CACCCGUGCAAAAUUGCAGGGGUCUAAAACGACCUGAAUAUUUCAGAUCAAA RNA 2: GGGAAUGGAUCCACAUCUACGAAUUCGUUUUUGAUCUGAAAUAUCUCAGGAUCUGCAGAUCGGAAGAGCACACGU . Its pKd was 7.03

Measured pKd, target 2 MT 5'PFS GAG 3'PFS AAC (mixed) RNA 1: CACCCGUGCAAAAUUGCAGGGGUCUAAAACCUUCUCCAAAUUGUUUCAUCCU RNA 2: GGGAAUGGAUCCACAUCUACGAAUUCGAGAGGAUGAAACAAUUUGGAGAAGAACAGAUCGGAAGAGCACACGU : 8.21

# pKd of target 2 MT 5'PFS GGG 3'PFS UAU (mixed) RNA 1: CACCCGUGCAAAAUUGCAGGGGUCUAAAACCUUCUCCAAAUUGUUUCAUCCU RNA 2: GGGAAUGGAUCCACAUCUACGAAUUCGGGAGGAUGAAACAAUUUGGAGAAGUAUAGAUCGGAAGAGCACACGU = 8.02
